Hello, the source for this data is paper PMC8465290, in case you need it.

# assay text: Pharmacovigilance analysis of A.D.R. in EudraVigilance database
# Parameters: species or system human
# recorded conditions: within the KATP channel blockers
Provide the recorded Proportional Reporting Ratio (P.R.R.) hypoglycemia for the entries that follow.

Can you share its Proportional Reporting Ratio (P.R.R.) hypoglycemia? I mean this molecule: CCC1=C(C)CN(C(=O)NCCc2ccc(S(=O)(=O)NC(=O)N[C@H]3CC[C@H](C)CC3)cc2)C1=O [glimepiride]
≥ 2

Same question, CCOc1cc(CC(=O)N[C@@H](CC(C)C)c2ccccc2N2CCCCC2)ccc1C(=O)O [repaglinide] this time
≥ 2

Same question, CC(C)[C@H]1CC[C@H](C(=O)N[C@H](Cc2ccccc2)C(=O)O)CC1 [nateglinide] this time
≥ 2

* * *

# test target: KIR6.1-SUR2B (Homo sapiens, UniProt O60706+Q15842)
# Construct: expressed in transfected cells; host or cells: Hek293
# Sequence (Q15842 whole entry): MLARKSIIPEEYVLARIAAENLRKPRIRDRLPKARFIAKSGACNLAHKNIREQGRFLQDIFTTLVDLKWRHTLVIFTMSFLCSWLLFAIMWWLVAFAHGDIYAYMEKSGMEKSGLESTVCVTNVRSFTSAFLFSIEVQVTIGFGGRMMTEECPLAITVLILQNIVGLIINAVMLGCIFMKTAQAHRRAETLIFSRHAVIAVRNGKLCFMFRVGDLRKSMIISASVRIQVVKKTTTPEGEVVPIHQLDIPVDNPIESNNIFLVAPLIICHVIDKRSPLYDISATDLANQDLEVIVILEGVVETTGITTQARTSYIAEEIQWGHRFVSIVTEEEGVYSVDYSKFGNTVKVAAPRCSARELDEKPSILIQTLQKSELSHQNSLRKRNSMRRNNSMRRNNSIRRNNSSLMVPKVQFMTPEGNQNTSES
# Sequence (O60706 1-1549 isoform O60706-2): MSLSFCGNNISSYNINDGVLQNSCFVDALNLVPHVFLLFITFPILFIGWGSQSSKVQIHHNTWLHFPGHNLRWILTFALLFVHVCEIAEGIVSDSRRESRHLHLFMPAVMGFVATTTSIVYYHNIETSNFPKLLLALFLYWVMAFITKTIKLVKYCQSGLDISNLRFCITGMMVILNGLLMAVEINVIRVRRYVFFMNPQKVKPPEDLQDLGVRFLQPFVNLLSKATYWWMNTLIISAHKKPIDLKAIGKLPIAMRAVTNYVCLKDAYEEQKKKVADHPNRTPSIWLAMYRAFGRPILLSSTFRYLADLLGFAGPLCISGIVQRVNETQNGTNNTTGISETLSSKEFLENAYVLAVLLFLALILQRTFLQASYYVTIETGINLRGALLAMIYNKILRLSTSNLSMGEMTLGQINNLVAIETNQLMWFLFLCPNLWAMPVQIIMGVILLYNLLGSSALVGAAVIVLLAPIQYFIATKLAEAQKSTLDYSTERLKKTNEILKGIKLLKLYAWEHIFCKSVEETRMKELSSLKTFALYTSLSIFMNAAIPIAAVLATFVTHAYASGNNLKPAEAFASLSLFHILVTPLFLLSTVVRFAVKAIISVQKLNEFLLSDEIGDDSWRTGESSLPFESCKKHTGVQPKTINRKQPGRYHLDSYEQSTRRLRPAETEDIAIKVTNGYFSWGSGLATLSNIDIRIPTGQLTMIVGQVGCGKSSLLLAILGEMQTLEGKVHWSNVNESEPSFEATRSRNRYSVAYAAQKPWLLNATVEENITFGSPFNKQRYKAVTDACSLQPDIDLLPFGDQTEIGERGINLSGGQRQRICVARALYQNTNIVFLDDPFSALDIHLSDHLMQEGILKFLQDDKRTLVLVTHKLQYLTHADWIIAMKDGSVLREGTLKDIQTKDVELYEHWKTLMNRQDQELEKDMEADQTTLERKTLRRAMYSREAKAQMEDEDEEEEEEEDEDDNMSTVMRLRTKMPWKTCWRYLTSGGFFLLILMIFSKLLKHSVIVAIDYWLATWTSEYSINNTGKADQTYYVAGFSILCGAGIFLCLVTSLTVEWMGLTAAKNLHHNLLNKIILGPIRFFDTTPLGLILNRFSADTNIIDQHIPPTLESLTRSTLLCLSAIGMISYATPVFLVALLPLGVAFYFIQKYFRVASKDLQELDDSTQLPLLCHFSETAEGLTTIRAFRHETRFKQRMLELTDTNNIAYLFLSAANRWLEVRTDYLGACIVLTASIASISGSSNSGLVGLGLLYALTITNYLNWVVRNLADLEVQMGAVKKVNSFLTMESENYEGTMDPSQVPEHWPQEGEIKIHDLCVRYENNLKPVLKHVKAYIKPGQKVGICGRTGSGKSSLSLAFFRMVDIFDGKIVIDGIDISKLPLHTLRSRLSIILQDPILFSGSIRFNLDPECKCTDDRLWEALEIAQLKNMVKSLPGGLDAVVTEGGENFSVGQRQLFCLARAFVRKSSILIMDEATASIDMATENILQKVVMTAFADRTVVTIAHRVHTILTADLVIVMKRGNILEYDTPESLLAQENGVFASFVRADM
# assay text: Whole-cell current of recombinant KIR6.1-SUR2B in Hek293 cells
# Type: cell-based
result type: pIC50
In plain terms, pIC50 is the concentration in mol/L turned into minus its base-10 logarithm.

Can you share its pIC50? I mean this molecule: O=P(O)(O)C(O)(Cn1ccnc1)P(=O)(O)O [Zoledronic acid]
9.41
